Hi there, I'd appreciate the recorded protein stability index for every entry that follows.
B1: BTBD1 (parent)
chain: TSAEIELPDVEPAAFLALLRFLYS

- Variants of: B1
- assaySummary: protein stability index of a GFP-peptide fusion (GPS, HEK-293T) (PSI 1-6); higher = more stable;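 note: lentivirally expressed fusions sorted by FACS into six bins by GFP to DsRed ratio, PSI derived from sequencing read proportions per bin multiplied by bin number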
- conditionSet: c terminus: a fixed tail appended
Write the number on its own, no unit after it.

Ask: Give its protein stability index value. Item: "TSAEIELSDVEPAAFLALLRFLYS"
Reply: 2.06

Ask: Try this variant too: "TSAEIELPDVEPAAFLALLRFLWS"
Reply: 1.99

Ask: Try this variant too: "TSAEIELPIVEPAAFLALLRFLYS"
Reply: 1.49

Ask: Try this variant too: "TSAEIELPDVEPAAFLALLRFLYF"
Reply: 2.33

Ask: Try this variant too: "TSAEIELPDVEPAAFLALLRGLYS"
Reply: 2.18

Ask: Try this variant too: "THAEIELPDVEPAAFLALLRFLYS"
Reply: 1.82

Ask: Try this variant too: "TSAEIELPWVEPAAFLALLRFLYS"
Reply: 2.12

Ask: Try this variant too: "TSAEIELPDVEPAAFLMLLRFLYS"
Reply: 1.62

Ask: Try this variant too: "TSAEIELPDVEPAAALALLRFLYS"
Reply: 1.69

Ask: Try this variant too: "TSAEIELPDVEPAANLALLRFLYS"
Reply: 1.98

Ask: Try this variant too: "TSAEIELPDVEPAAFLGLLRFLYS"
Reply: 2.27

Ask: Try this variant too: "TSAEIELPDGEPAAFLALLRFLYS"
Reply: 2.23

Ask: Try this variant too: "TSAELELPDVEPAAFLALLRFLYS"
Reply: 1.75

Ask: Try this variant too: "TSAEIELPDVEPAHFLALLRFLYS"
Reply: 2.04

Ask: Try this variant too: "TSAEIELNDVEPAAFLALLRFLYS"
Reply: 1.92
